# target.or.test.system: Integrin alpha-IIb/beta-3 (Homo sapiens, UniProt P05106+P08514)
# Sequence (P05106 27-788 limits assumed): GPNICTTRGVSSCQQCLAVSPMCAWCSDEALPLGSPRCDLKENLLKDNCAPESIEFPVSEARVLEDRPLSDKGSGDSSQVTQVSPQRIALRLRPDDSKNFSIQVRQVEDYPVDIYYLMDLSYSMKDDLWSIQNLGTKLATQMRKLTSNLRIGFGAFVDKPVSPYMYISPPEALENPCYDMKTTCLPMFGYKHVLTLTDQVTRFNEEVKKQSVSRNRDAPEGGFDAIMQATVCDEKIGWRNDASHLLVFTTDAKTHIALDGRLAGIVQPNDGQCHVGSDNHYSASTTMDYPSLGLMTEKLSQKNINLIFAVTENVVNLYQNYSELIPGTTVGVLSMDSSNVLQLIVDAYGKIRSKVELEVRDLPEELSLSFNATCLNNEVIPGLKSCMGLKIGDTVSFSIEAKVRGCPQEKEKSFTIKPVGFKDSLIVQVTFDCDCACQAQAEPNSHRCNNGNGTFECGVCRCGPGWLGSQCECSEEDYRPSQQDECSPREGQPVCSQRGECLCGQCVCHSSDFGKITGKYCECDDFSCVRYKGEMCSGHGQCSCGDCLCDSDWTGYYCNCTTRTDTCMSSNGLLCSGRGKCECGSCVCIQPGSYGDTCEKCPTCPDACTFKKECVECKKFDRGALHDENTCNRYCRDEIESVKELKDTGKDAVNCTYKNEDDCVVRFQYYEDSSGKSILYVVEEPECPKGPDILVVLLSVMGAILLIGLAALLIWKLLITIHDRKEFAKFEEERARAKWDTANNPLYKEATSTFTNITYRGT
# Sequence (P08514 32-887 limits assumed): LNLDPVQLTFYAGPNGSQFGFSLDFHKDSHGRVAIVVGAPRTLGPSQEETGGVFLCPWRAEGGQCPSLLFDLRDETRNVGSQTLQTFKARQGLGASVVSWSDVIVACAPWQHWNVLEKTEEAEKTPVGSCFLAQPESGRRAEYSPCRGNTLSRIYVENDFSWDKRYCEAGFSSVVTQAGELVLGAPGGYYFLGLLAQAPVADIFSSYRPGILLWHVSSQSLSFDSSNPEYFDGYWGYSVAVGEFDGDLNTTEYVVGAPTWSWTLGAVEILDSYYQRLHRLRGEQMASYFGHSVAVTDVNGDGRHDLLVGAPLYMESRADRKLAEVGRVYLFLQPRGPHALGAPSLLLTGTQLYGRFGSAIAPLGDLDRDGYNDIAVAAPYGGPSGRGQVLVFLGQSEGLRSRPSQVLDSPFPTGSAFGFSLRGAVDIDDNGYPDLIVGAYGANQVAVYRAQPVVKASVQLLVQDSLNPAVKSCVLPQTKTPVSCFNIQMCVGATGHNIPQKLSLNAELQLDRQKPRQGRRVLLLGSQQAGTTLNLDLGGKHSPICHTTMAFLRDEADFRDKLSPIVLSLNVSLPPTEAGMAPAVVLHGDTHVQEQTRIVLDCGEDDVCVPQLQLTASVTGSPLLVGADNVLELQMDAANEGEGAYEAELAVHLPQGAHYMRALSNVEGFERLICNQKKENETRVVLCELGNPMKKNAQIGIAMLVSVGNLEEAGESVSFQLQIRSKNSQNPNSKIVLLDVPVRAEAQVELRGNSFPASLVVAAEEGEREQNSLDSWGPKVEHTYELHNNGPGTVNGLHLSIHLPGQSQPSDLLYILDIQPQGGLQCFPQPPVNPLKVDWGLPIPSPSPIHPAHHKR
# Sequence (P08514 891-1039 limits assumed): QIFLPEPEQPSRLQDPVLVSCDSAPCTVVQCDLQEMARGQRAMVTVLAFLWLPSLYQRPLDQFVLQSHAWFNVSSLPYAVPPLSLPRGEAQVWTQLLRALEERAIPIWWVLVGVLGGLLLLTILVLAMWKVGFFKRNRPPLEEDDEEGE
# protocol.text: Binding affinity against integrin alpha 2b-beta 3 in enzyme linked immunosorbent assay (ELISA)
# Type: protein-complex assay
Hi there, I'd appreciate the recorded pIC50 for every entry that follows.
Numbers only, as −log10 of the molar value.

For each of the compounds below, state pIC50.
1. COc1ccc(C[C@@H]2NC(=O)[C@H](CC(=O)O)NC(=O)CNC(=O)[C@H](CCCN=C(N)N)NC(=O)[C@H](Cc3c[nH]cn3)NC(=O)[C@H](CCCN=C(N)N)NC(=O)[C@@H](NC(=O)[C@@H](N)CCCN=C(N)N)C3(CCCCC3)SSC[C@@H](C(=O)N[C@@H](CCCN=C(N)N)C(=O)O)NC(=O)[C@H](CCCN=C(N)N)NC2=O)cc1
2. CC(C)C[C@@H]1NC(=O)[C@H](CC(=O)O)NC(=O)CNC(=O)[C@H](CCCNC(=N)N)NC(=O)[C@H](Cc2c[nH]cn2)NC(=O)CNC(=O)[C@@H](NC(=O)[C@@H](N)CCCNC(=N)N)C2(CCCCC2)SSC[C@@H](C(=O)N[C@@H](CCCNC(=N)N)C(=O)O)NC(=O)[C@H](CCCNC(=N)N)NC1=O
3. NC(N)=NCCC[C@H](NC(=O)[C@@H]1CSSC2(CCCCC2)[C@H](NC(=O)[C@@H](N)CCCN=C(N)N)C(=O)NCC(=O)N[C@@H](Cc2c[nH]cn2)C(=O)N[C@@H](CCCN=C(N)N)C(=O)NCC(=O)N[C@@H](CC(=O)O)C(=O)N[C@@H](Cc2ccc3ccccc3c2)C(=O)N[C@@H](CCCN=C(N)N)C(=O)N1)C(=O)O

Output line:
1: 7.15; 2: 6.40; 3: 7.15
